Where these numbers come from: patent US20090105119A1

# assayRemarks: Determination of the free fraction (fu) in plasma
# Type: in vitro ADME, rat
# conditionLabel: rat, plasma, pH 7.4
*1 amine or outer side, *2 acyl side, *3 side chain or, on linkers, in order; H or OH if unused. Where a SMILES comes first, the peptide text is derived from it. Bridges are numbered along the chain shown (N, C = ends). [ ]: non-standard residue; d: D form. Phe(3R-OH) = O=C([C@@H](N[*:1])[C@H](O[*:3])c1ccccc1)[*:2]; X8 = O=C(NCCCN1CCOCC1)[C@@H](O)[C@H](N[*:1])C(=O)[*:2]; X7 = O=C(NCc1ccccc1)[C@@H](O)[C@H](N[*:1])C(=O)[*:2]; Asn(3S-OH) = NC(=O)[C@@H](O)[C@H](N)C(=O)O; Leu(3R-OH) = CC(C)[C@@H](O)[C@H](N)C(=O)O; aThr = C[C@H](O)[C@H](N)C(=O)O
reportedEndpoint: fraction unbound at 30 min, 200 ng/mL
Output: the number by itself.

Example entries and their recorded answers appear below.
{"compound": "CC[C@H](C)[C@@H]1NC(=O)[C@@H](CCCNC(=N)N)NC(=O)[C@H](CC(C)C)NC(=O)[C@H]([C@H](O)C(C)C)NC(=O)[C@@H](NC(=O)[C@H](CC(C)C)NC(=O)[C@H](N)CC(C)C)[C@@H](c2ccccc2)OC(=O)[C@H](CO)NC(=O)[C@H]([C@H](O)C(=O)NCCCN2CCOCC2)NC(=O)CNC(=O)[C@H]([C@H](C)O)NC1=O [Example 4] (H-[dL]L[Phe(3R-OH)][Leu(3R-OH)]L[dR]I[aThr]G[X8]S; ester 3-C)", "fraction unbound at 30 min, 200 ng/mL": 0.068}
{"compound": "CC[C@H](C)[C@@H]1NC(=O)[C@@H](CCCNC(=N)N)NC(=O)[C@H](CC(C)C)NC(=O)[C@H]([C@H](O)C(C)C)NC(=O)[C@@H](NC(=O)[C@H](CC(C)C)NC(=O)[C@H](N)CC(C)C)[C@@H](c2ccccc2)OC(=O)[C@H](CO)NC(=O)[C@H]([C@H](O)C(N)=O)NC(=O)CNC(=O)[C@H]([C@H](C)O)NC1=O [1a (Lysobactin), Bistrifluoroacetate, reference compound] (H-[dL]L[Phe(3R-OH)][Leu(3R-OH)]L[dR]I[aThr]G[Asn(3S-OH)]S; ester 3-C)", "fraction unbound at 30 min, 200 ng/mL": 0.0076}

Here is another compound to look at.
For the compound CC[C@H](C)[C@@H]1NC(=O)[C@@H](CCCNC(=N)N)NC(=O)[C@H](CC(C)C)NC(=O)[C@H]([C@H](O)C(C)C)NC(=O)[C@@H](NC(=O)[C@H](CC(C)C)NC(=O)[C@H](N)CC(C)C)[C@@H](c2ccccc2)OC(=O)[C@H](CO)NC(=O)[C@H]([C@H](O)C(=O)NCc2ccccc2)NC(=O)CNC(=O)[C@H]([C@H](C)O)NC1=O [Example 6] (H-[dL]L[Phe(3R-OH)][Leu(3R-OH)]L[dR]I[aThr]G[X7]S; ester 3-C) , give its reported fraction unbound at 30 min, 200 ng/mL.
0.07

----------
# assayRemarks: Determination of the free fraction (fu) in plasma
# Assay type: in vitro ADME
# conditionLabel: human
*1 amine or outer side, *2 acyl side, *3 side chain or, on linkers, in order; H or OH if unused. Where a SMILES comes first, the peptide text is derived from it. Bridges are numbered along the chain shown (N, C = ends). [ ]: non-standard residue; d: D form. Phe(3R-OH) = O=C([C@@H](N[*:1])[C@H](O[*:3])c1ccccc1)[*:2]; X8 = O=C(NCCCN1CCOCC1)[C@@H](O)[C@H](N[*:1])C(=O)[*:2]; X7 = O=C(NCc1ccccc1)[C@@H](O)[C@H](N[*:1])C(=O)[*:2]; Asn(3S-OH) = NC(=O)[C@@H](O)[C@H](N)C(=O)O; Leu(3R-OH) = CC(C)[C@@H](O)[C@H](N)C(=O)O; aThr = C[C@H](O)[C@H](N)C(=O)O
Consider the following compounds and their measured fraction unbound at 30 min readings.
Output: the number by itself.

Example entries and their recorded answers appear below.
{"compound": "CC[C@H](C)[C@@H]1NC(=O)[C@@H](CCCNC(=N)N)NC(=O)[C@H](CC(C)C)NC(=O)[C@H]([C@H](O)C(C)C)NC(=O)[C@@H](NC(=O)[C@H](CC(C)C)NC(=O)[C@H](N)CC(C)C)[C@@H](c2ccccc2)OC(=O)[C@H](CO)NC(=O)[C@H]([C@H](O)C(=O)NCc2ccccc2)NC(=O)CNC(=O)[C@H]([C@H](C)O)NC1=O [Example 6] (H-[dL]L[Phe(3R-OH)][Leu(3R-OH)]L[dR]I[aThr]G[X7]S; ester 3-C)", "number": 0.026}
{"compound": "CC[C@H](C)[C@@H]1NC(=O)[C@@H](CCCNC(=N)N)NC(=O)[C@H](CC(C)C)NC(=O)[C@H]([C@H](O)C(C)C)NC(=O)[C@@H](NC(=O)[C@H](CC(C)C)NC(=O)[C@H](N)CC(C)C)[C@@H](c2ccccc2)OC(=O)[C@H](CO)NC(=O)[C@H]([C@H](O)C(=O)NCCCN2CCOCC2)NC(=O)CNC(=O)[C@H]([C@H](C)O)NC1=O [Example 4] (H-[dL]L[Phe(3R-OH)][Leu(3R-OH)]L[dR]I[aThr]G[X8]S; ester 3-C)", "number": 0.024}

Here is another compound to look at.
For the compound CC[C@H](C)[C@@H]1NC(=O)[C@@H](CCCNC(=N)N)NC(=O)[C@H](CC(C)C)NC(=O)[C@H]([C@H](O)C(C)C)NC(=O)[C@@H](NC(=O)[C@H](CC(C)C)NC(=O)[C@H](N)CC(C)C)[C@@H](c2ccccc2)OC(=O)[C@H](CO)NC(=O)[C@H]([C@H](O)C(N)=O)NC(=O)CNC(=O)[C@H]([C@H](C)O)NC1=O [1a (Lysobactin), Bistrifluoroacetate, reference compound] (H-[dL]L[Phe(3R-OH)][Leu(3R-OH)]L[dR]I[aThr]G[Asn(3S-OH)]S; ester 3-C) , give its reported fraction unbound at 30 min.
0.0081
